Hi there, I'd appreciate the recorded Percent Effect for every entry that follows.
system: Wolbachia pipientis; experiment: Anti-Wolbachia Cell-Based Screen; type: functional; design: scale not given: in the data most compounds retested in dose-response had high values; settings: 5 µM
About 13,000 (27%) of roughly 48,000 compounds showed an effect of 50% or more. This is one part of the list.
Number first, unit second: that is the form wanted.

Value wanted: Percent Effect (Wolbachia pipientis) of entry Cc1cc(CN2CCCC2)cc(Oc2ccc(C(F)(F)F)cn2)c1
9.077%

Missing value: Percent Effect, Wolbachia pipientis, entry CC(C)(C)SCCCC(=O)N1CCC(Nc2cccnn2)CC1 . Fill in?
-0.09307%

Give the reported Percent Effect for CS(=O)(=O)N1CCCC12CCCN(S(=O)(=O)c1cc(F)cc(F)c1)C2 (stereo not drawn) (system: Wolbachia pipientis).
-5.366%

====

test system: Wolbachia pipientis; assay: Anti-Wolbachia Cell-Based Screen; format: functional; parameters: scale not given: in the data most compounds retested in dose-response had high values; settings: 5 µM
Hit rate of the full screen: of about 48,000 compounds, about 13,000 (27%) showed an effect of 50% or more. Some of the results follow.
VALUE_KIND: Percent Effect (%)
Only the number, expressed in %, is required.

Field: Percent Effect (Wolbachia pipientis). Entry: O=C(Cn1ccc2ncccc2c1=O)N1CCCCC1
-19.73

Recorded Percent Effect for CCOCC1CN(Cc2ccc(OC)cc2)Cc2nn(C)cc21.O=C(O)C(F)(F)F (centres undefined) with Wolbachia pipientis, please?
11.5

API: value(readout=Percent Effect, system=Wolbachia pipientis) for record CCN(CC(=O)NC)C(=O)c1csc(Cc2ccccc2)n1
-20.14

Identify the measured Percent Effect of c1nnc(Nc2cncc(C3CCCN3CC3CC3)n2)s1 (centres undefined) for Wolbachia pipientis.
143.4

Given the entry COCC(c1ccccn1)N(C)C(=O)c1cc(-c2ccccc2O)n[nH]1 (centres undefined) , what Percent Effect was observed with Wolbachia pipientis?
-8.202

Missing value: Percent Effect, Wolbachia pipientis, entry CN(C)CCOCC1CN(Cc2ccsc2)Cc2nnn(C)c21.O=C(O)C(F)(F)F.O=C(O)C(F)(F)F (centres undefined) . Fill in?
121.1

I'm curious: which Percent Effect was measured for COc1ccc(CN2Cc3nnn(C)c3C(COCCN(C)C)C2)cc1.O=C(O)C(F)(F)F.O=C(O)C(F)(F)F (centres undefined) tested on Wolbachia pipientis?
106.7

Give the reported Percent Effect for COCCOCCNc1cncc(Br)c1 (system: Wolbachia pipientis).
-4.495

Item Cc1nc(-c2ccccc2)n(CC(=O)N(C(C)C)C(C)C)n1 with Wolbachia pipientis - Percent Effect?
7.414

====

tested on: Wolbachia pipientis; experiment: Anti-Wolbachia Cell-Based Screen; format: functional; parameters: scale not given: in the data most compounds retested in dose-response had high values; settings: 5 µM
Among all 48,000 compounds or so, about 13,000 (27%) showed an effect of 50% or more. The list shows a part of the results.
VALUE_KIND: Percent Effect (%)
The reply should contain only the number, in %.

Look up Percent Effect for this compound: CCn1cc(NC(=O)NCc2ccc(CO)c(F)c2)cn1
112.4

Using the record for Cc1cnc(C(=O)NCC(c2ccc(C)o2)N2CCOCC2)cn1 (centres undefined) , report its Percent Effect.
-11.84

I would be grateful if you could share the reported Percent Effect for CC(NCc1cnn(C)c1)c1noc(-c2ccc(Cl)cc2)n1 (centres undefined) .
2.096

For Cc1cc(CNC(=O)N2CCN(C(C)c3cccnc3)CC2)c(C)o1 (centres undefined) , what is its reported Percent Effect?
-1.868
